Target: T1, FcRn-p3 fusion protein (human, UniProt P55899 24-297; P61769 21-119)
T1 construct: baculovirus expressed; coated on ELISA wells; not shown: amino terminal part of bacteriophage p3 protein and CVDE protein
T1 sequence (P55899 24-297, chain 1 of 2): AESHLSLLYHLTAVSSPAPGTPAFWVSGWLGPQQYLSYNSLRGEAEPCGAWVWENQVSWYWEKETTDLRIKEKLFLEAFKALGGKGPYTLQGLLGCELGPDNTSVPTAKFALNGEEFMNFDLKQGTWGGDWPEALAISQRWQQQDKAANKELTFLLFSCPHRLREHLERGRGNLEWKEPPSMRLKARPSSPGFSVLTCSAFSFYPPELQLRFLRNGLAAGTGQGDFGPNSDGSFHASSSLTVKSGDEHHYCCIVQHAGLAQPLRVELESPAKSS
T1 sequence (P61769 21-119, chain 2 of 2): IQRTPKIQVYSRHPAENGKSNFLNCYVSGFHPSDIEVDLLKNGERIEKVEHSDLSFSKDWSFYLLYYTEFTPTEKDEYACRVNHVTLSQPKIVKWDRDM
Assay: phage ELISA pH6
measure_name: Ratio/Fc-H

T7A_92 (other, EU numbering) CPPCPAPELLGGPSVFLFPPKPKDTLMISRTPEVTCVVEDVSHEDPEVKFNWYVDGVEVHNAKTKPREEQYNSTYRVVSVLTVLHQDWLNGKEYKCKVSNKALPAPIEKTISKAKGQPREPQVYTLPPSRDELTKNQVSLTCLVKGFYPSDIAVEWESNGQPENNYKTTPLVLDSDGSFFLYSKLTVDKNRWQQGNVFSCSVMHEALHSHYTQKSLSLSPGK : 6.7 fold
C3A_13 (other, EU numbering) GPPCPAPELLGGPSVFLFPPKPKDTLMISRTPEVTCVVVDVSHEDPEVKFNWYVDGVEVHNAKTKPREEQYNSTYRVVSVLTVLHQDWLDGKEYKCKVSNKALPVPIEKTISKAKGQPREPQVYTLPPSRDELTKNQVSLTCLVKGFYPSDIAVEWESNGQPENNYKTTPPVLDSDGSFFLYSKLTVDKSRWQQGNVFSCSVMHEALHYHYTQKSLSLSPGK : 5.6 fold
C6A_85 (other, EU numbering) CPPCPAPELLGGPSVFLFPPKPKDTLMISRTPEVTCVVVDVSHEDPEVKFNWYVDGVEVHNAKTKPREEQYNSTYRVVSALTVLHQDWLDGKEYKCKVSNKALPVPIEKTISKAKGQPREPQVYTLPPSRDELTKNQVSLTCLVKGFYPSDIAVEWESNGQPEKNYKTTPPVLDSDGSFFLYSKLTVDKSRWQQGNVFSCSVMHEALHYHYTQKSLSLSPGK : 7.4 fold
C5A_75 (other, EU numbering) CPPCPAPELLGGPSVFLFPPKPKDTLMISRTPEVTCVVVDVSHEDPEVKFNWYVDGVEVHNAKTKPREEQYNSTYRVVSVLNVLHQDWLDGKEYKCKVSNKALPAPIEKTISKAKGQPREPQVYTLPPSRDELTKNQVSLTCLVKGFYPSDIAVEWESNGQPENNYKTTPPVLDSDGSFFLYSKLTVDKSRWQQGNVFSCSVMHEALHYHYTQKSLSLSPGK : 2.8 fold
M3A_35 (other, EU numbering) CPPCPAPELLGGPSVFLFPPKPKDTLMISRTPEVTCVVEDVSHEDPEVKFNWYVDGVEVHNAKTKPREEQYNSTYRVVSVLTVLHQDWLDGKEYKCKVSNKALPAPIEKTISKAKGQPREPQVYTLPPSRDELTKNQVSLTCLVKGFYPSDIAVEWESNGQPENNYKTTPLVLDSDGSFFLYSKLTVDKSRWQQGNVFSCSVMHEALHNHYTQKSLSLSPGK : 1.1 fold
T8A_34 (other, EU numbering) CPPCPAPELLGGPSVFLFPPKPKDTLMISRTPEVTCVVVDVSHEDPEVKFNWYVDGVEVHNAKTKPREEQYNSTYRVVSVLAVLHQDWLDGKEYKCKVSNKALPAPIEKAISKAKGQPREPQVYTLPPSRDELTKNQVSLTCLVKGFYPSDIAVEWESNGQPENNYKTTPPVLDSDGSFFLYSKLTVDKSRWQQGNVFSCSVMHEALHYHYTQKSLSLSPGK : 1.8 fold
T5A_40 (other, EU numbering) CPPCTAPELLGGPSVFLFPPKPKDTLMISRTPEVTCVVEDVSHEDPEVKFNWYVDGVEVHNAKTKPREEQYNSTYRVVSVLPVLHQDWLNGKEYKCKVSNKALPAPIEKTISKAKGQPREPQVYTLPPSRDELTKNQVSLTCLVKGFYPSDIVVEWESNGQPENNYKTTPPVLDSDGSFFLYSKLTVDKSRWQQGTVFSCSVMHEALHNHYTQKSLSLSPGK : 3.4 fold
T5A_81 (other, EU numbering) CPPCPAPELLGGPSVFLFPPKPKDTLMISRTPEVTCVVEDVSHEDPEVKFNWYVDGVEVHNAKTKPREEQYNSTYRVVSVLTVLHQDWLNGKEYKCKVSNKALPAPIEKTISKAKGQPREPQVYTLPPSRDELTKNQVSLTCLVKGFYPSDIVVEWESNGQPENNYKTTPPVLDSDGSFFLYSKLTVDKSKWQQGNVFSCSVMHEALHNHYTQKSLSLSPGK : 4.6 fold
C5A_19 (other, EU numbering) CPPCPAPELLGGPSVFLFPPKPKDTLMISRTPEVTCVVADVSHEDPEVKFNWYVDGVEVHNAKTKPREEQYNSTYRVVSALTVLHQDWLDGKEYKCKVSNKALPVPIEKTISKAKGQPREPQVYTLPPSRDELTKNQVSLTCLVKGFYPSDIAVEWESNGQPENNYKTTPPVLDSDGSFFLYSKLTVDKSRWQQGNVFSCSVMHEALHYHYTQKSLSLSPGK : 2.9 fold
T3A_16 (other, EU numbering) CPPCPAPELLGGPSVLLFPPKPKDTLMISRTPEVTCVVEDVSHEDPEVKFNWYVDGVEVHNAKTKPREEQYNSTYRVVSVLPVLHQDWLNGKEYKCKVSNKALPAPIEKTISKAKGQPREPQVYTLPPSRDELTKNQVSLTCLVKGFYPSDIVVEWESNGQPENNYKTTPPVLDSDGSFFLYSKLTVDKSRWQQGNVFSCSVMHEALHNHYTQKSLSLSPGK : 2.3 fold
